- Test system: OVCAR-5
- experiment notes: NCI tumour cell line growth inhibition, 48 h
Calls of active or inactive are those of the source. No stated cut-off is given here; in the data, active = GI50 up to about 1.1 µM and inactive = higher.
Respond using exactly one of the listed classes: 1 (active), -1 (inactive)

CCCc1c(O)c(=O)c2c(OC)cc(OC)c3c4c(OC)cc(OC)c5c(=O)c(O)c(CCC)c(c1c23)c54 = -1

Ask: Kindly provide the recorded test outcome for the following molecule: O=NN1CCN=C1c1ccc([N+](=O)[O-])cc1
Reply: -1

Ask: Please give the result for COc1ccc2c3c1OC1C(F)C=CC4(O)C(C2)NCCC314 (stereo unspecified) too.
Reply: -1

Ask: CC1(C)O[C@@H](CC/C=C/CO)[C@H](CC/C=C/CO)O1 , same question.
Reply: -1

Ask: How about COc1cc2c(cc1O)[C@H](C)C(c1ccc(Cl)cc1)O2 (stereo partly specified) ?
Reply: -1

Ask: Likewise for Cc1ccc(N2C=Nn3c(nc4sc5c(c4c3=O)CCCC5)C2)cc1 ?
Reply: -1

Ask: Also check C=CCCC(=O)C(=[N+]=[N-])C(=O)CCC(=O)c1ccccc1
Reply: -1

Ask: Likewise for O=C(/C=C/C=C/c1ccccc1)CCc1ccccc1 ?
Reply: -1

Ask: Another molecule to check: COC(=O)CC(CC(=O)C(=O)OC)C(=O)OC (stereo unspecified)
Reply: -1

Ask: Another molecule to check: COC(=O)C1=CC2OC13CC1CCC3(C2=O)C1(C)C (stereo unspecified)
Reply: -1

Ask: Subsequent entry: CC(=O)C(C)C(=O)N1C(=O)N(C)C2(C)N(C)C(=O)NC12C (stereo unspecified)
Reply: -1

Ask: What about CC(=O)Oc1ccc2c(-c3ccccc3)c(Oc3ccc(Cl)cc3)c(=O)oc2c1 ?
Reply: -1

Ask: Now the same for S=c1[nH]nc(Cn2c3ccc(Br)cc3c3nc4ccccc4nc32)o1
Reply: -1

Ask: What do we get for O=c1nc(NC(c2ccccc2)(c2ccccc2)c2ccccc2)ccn1CCO ?
Reply: -1

Ask: Entry Nc1nc2c(=O)c3ccccc3sc2s1 please
Reply: -1

Ask: Also need CCOC(=O)C(C(=O)OCC)=C1N[C@H](C(=O)OCC)CS1 , thanks.
Reply: -1

Ask: Cool, now N#C/C(N)=N/c1ccccc1
Reply: -1

Ask: Note, next up: CCOC(=O)c1cccc(NC(=O)CI)c1
Reply: -1

Ask: Now the same for CC1C(=O)C(C)C(c2cccs2)N(N=O)C1c1cccs1 (stereo unspecified)
Reply: -1

Ask: Cool, now N#C/C(=C\c1ccc(O)c(O)c1)C(N)=S
Reply: -1

Ask: And the next one, CC(NC(=O)C(C)NC(=O)C(N)CCP(C)(=O)O)C(=O)O (stereo unspecified) ?
Reply: -1

---

Each entry below lists one item and its recorded GI50 value.
- Test system: A498
- experiment notes: NCI tumour cell line growth inhibition, 48 h
Activity calls are given as the source filed them. No stated cut-off is given here; in the data, active = GI50 up to about 1.1 µM and inactive = higher.

Some compounds with recorded GI50:
CN1c2ccccc2N(C)C2C1N(C)c1ccccc1N2C (stereo not given) = 31.6 µM (inactive)
CCCCCCCCCCCCCCCCCCOP1(=O)OCCO1 = > 100 µM (inactive)
Cn1c(=O)c2c3oc(=O)cc(O)c3c(=O)n3c4ccccc4n(c1=O)c23 = 23.9 µM (inactive)
CN(C)c1ccc(C(=C2C=CC(=[N+](C)C)C=C2)c2c(O)c(S(=O)(=O)[O-])cc3cc(S(=O)(=O)O)ccc23)cc1 = > 100 µM (inactive)
C[Si](C)(C)C#Cc1cc(-c2nc3ccccc3s2)ccc1N = 19.9 µM (inactive)

# input for lookup
Ask: Param item = NC(=S)N/N=C1\CCCC1C(O)(C(F)(F)Cl)C(F)(F)Cl (stereo not given) ; retrieve measured GI50.
Reply: > 10 µM (inactive)

---

- Test system: HT-29
- experiment notes: NCI tumour cell line growth inhibition, 48 h
Activity calls are given as the source filed them. No stated cut-off is given here; in the data, active = GI50 up to about 1.1 µM and inactive = higher.
Valid outcomes are listed here; reply with one: active, inactive

CCCC(=O)C1=C(O)C(Cc2c(O)c(C)c(O)c(C(=O)CCC)c2O)=C(O)C(C)(C)C1=O = inactive
Nc1ccc(C(=O)N/C(=C\c2cccc([N+](=O)[O-])c2)c2nc3ccccc3[nH]2)cc1 = inactive

Let's switch to this molecule now.
Ask: Hello, I am checking results. What call was entered for CC(C)COC(c1ccc2c(c1)OCO2)C(C)Br (stereo unspecified) ?
Reply: inactive

---

- Tested on: SR
- experiment notes: NCI tumour cell line growth inhibition, 48 h
Calls of active or inactive are those of the source. No stated cut-off is given here; in the data, active = GI50 up to about 1.1 µM and inactive = higher. Where a SMILES comes first, the peptide text is derived from it. The star is where a group is joined. Boc = CC(C)(C)OC(=O)*
Form entry, call: pick from active, inactive

The examples below pair each entry with its known result.
Nc1cc2c3c(cccc3c1)C(=O)N(c1ccc(OCCN3CCCC3)cc1)C2=O = inactive
Cc1ccc(/C=C/c2n[nH]c(N/N=C/c3ccc4c(c3)OCO4)nc2=O)cc1 = inactive
CC1=C(c2cc(C(=O)Nc3nccs3)nc(NC#N)n2)Sc2ccccc2N1 = inactive
CNC(=O)CNC(=O)C(NC(=O)CNC(=O)C1CCCN1C(=O)C(C)NC(=O)C(NC(=O)OC(C)(C)C)C(C)C)C(C)C (centres undefined) (Boc-VAPGVG-NHMe; configuration not given here) = inactive
C1=N\CCNCC/N=C\c2ccc(cc2)OCc2cccc(n2)COc2ccc/1cc2 = inactive

Ask: Name the outcome recorded for CCC(=O)OCOc1ccc(/C=C2\CCC(CN(C)C)C2=O)cc1 (centres undefined) in the assay.
Reply: inactive

Ask: What would you report for CC(=O)OCC1OC(n2c(C)c(/N=N/c3ccccc3)c(C)c(C#N)c2=S)C(OC(C)=O)C(OC(C)=O)C1OC(C)=O (centres undefined) ?
Reply: inactive

Ask: What do we get for COC(=O)c1ccc(C)cc1CC1Cc2c(C)cccc2C1=O (centres undefined) ?
Reply: inactive

Ask: Now consider Nc1nc(N)c2cc(Sc3ccc4nc(N)nc(N)c4c3)ccc2n1 and answer again.
Reply: inactive

---

- System: OVCAR-3
- experiment notes: NCI tumour cell line growth inhibition, 48 h
Calls of active or inactive are those of the source. No stated cut-off is given here; in the data, active = GI50 up to about 1.1 µM and inactive = higher.
I would appreciate it if you answered using one of these outcomes: YES = active, NO = inactive

N#C/C(N)=C(C#N)/N=C/NCc1ccccc1 = NO
Cc1cc2c(c(C#N)c1C)NC(=O)C(CC(=O)O)C2=O (stereo not given) = NO
O=C(NNC(=O)c1cc(/C=C/c2cccc([N+](=O)[O-])c2)nc(S)n1)Nc1ccc(Cl)cc1 = NO
Cn1c(-c2ccc[se]2)ccc1-c1ccc(CO)[se]1 = YES
COc1ccc(C2C(C#N)=C(S)N(C3OC(CO)C(O)C(O)C3O)C(c3ccccc3)=C2C(C)=O)cc1 (stereo not given) = NO
O=C(CSc1nnc(Cc2ccccc2)o1)Nc1cccc(Cl)c1 = NO
COc1ccc(C2C(=O)c3ccc(OC)cc3OC2c2cccnc2)cc1 (stereo not given) = NO
Cc1ccc([N+](=O)[O-])cc1S(=O)(=O)Nc1ccc(C2=NN(S(=O)(=O)c3cc([N+](=O)[O-])ccc3C)C(c3cccs3)C2)cc1 (stereo not given) = NO

Ask: How did this test come out for COC(=O)C(Cc1nc2ccc(Cl)cc2nc1O)/C(=N/NC(N)=O)C(=O)Nc1ccc(Cl)cc1 (stereo not given) ?
Reply: NO

Ask: Also Cc1cc2c(c(S(=O)(=O)c3ccc(Cl)cc3[N+](=O)[O-])c1)NCCC2 , if possible.
Reply: NO

---

- System: UACC-257
- experiment notes: NCI tumour cell line growth inhibition, 48 h
The source made the active and inactive calls. Rule as the data show it: active = GI50 up to about 1.1 µM and inactive = higher.
A collection of molecules and their measured GI50

Known GI50 results, listed for orientation:
C=CC(CCc1ccc(C(=O)OCC)cc1)c1c(N)nc(N)[nH]c1=O (centres undefined) = 35.1 µM (inactive)
O=c1cc(-c2ccccc2)oc2ccc(Oc3nnnn3-c3ccccc3)cc12 = > 100 µM (inactive)
COc1ccc(/C=N/Nc2nnc3c(n2)c2ccccc2c2nn(-c4ccccc4Cl)nc23)cc1 = > 100 µM (inactive)

Ask: Requested read-out: GI50. Entry: COC(=O)[C@@H]1O[C@]12[C@@H](CO[Si](C)(C)C(C)(C)C)O[C@@H](n1cc(C)c(=O)[nH]c1=O)[C@@H]2O[Si](C)(C)C(C)(C)C
Reply: 22.4 µM (inactive)

---

- Tested on: RXF 393
- experiment notes: NCI tumour cell line growth inhibition, 48 h
Calls of active or inactive are those of the source. Cut-off read from the data, not from the text of the source: active = GI50 up to about 1.1 µM and inactive = higher.
measured endpoint: GI50

Recorded GI50, per entry:
O=C1Nc2ccccc2C1(O)Cc1ccccn1 (stereo not drawn) = > 100 µM (inactive)
C/C(=N\Nc1nc2ccccc2[nH]1)c1cccc[n+]1[O-] = 45.2 µM (inactive)
C/C(=N\NC(=O)c1ccccc1O)c1c(O)cc(C)oc1=O = 40.6 µM (inactive)
CCCCCCCCCCCCCP(=O)(OC)OC = 31.8 µM (inactive)
COc1ccc(Cn2c(=O)c(OS(=O)(=O)C(F)(F)F)c(C)c3cc4ccccc4cc32)cc1 = > 100 µM (inactive)
CC(C)=CCC[C@](C)(O[C@@H]1O[C@H](CO)[C@@H](O)[C@H](O)[C@H]1O)[C@H]1CC[C@]2(C)[C@@H]1[C@H](O)C[C@@H]1[C@@]3(C)CC[C@H](O)C(C)(C)[C@@H]3[C@@H](O[C@@H]3O[C@H](CO)[C@@H](O)[C@H](O)[C@H]3O)C[C@]12C [GINSENOSIDE RG1] = > 100 µM (inactive)
COc1cccc2c1OC1Sc3ccccc3-c3nn(-c4ccccc4)c-2c31 (stereo not drawn) = > 100 µM (inactive)

# input for lookup
Ask: Form field: reported GI50 of Cc1cccc(C)c1N1C(=O)C(=O)C(c2nc3ccccc3s2)/C(=N/NC(=O)NN)C1=O (stereo not drawn)
Reply: > 100 µM (inactive)
